// data source = BigSolDB 2.1

Settings: in water, 308.15 K
Readout Kind: solubility (mole fraction)

>>> recorded_value("CN1CCC(N(Cc2cccs2)c2ccccc2)CC1")
"4.62e-05"

###

Details: in water, 313.15 K
Readout Kind: solubility (mole fraction)

>>> recorded_value("CN1CCC(N(Cc2cccs2)c2ccccc2)CC1")
"5.09e-05"

###

Settings: in DMF, 303.15 K
Readout Kind: solubility (mole fraction)

>>> recorded_value("CN1CCC(N(Cc2cccs2)c2ccccc2)CC1")
0.0119

###

Settings: in DMF, 288.15 K
Readout Kind: solubility (mole fraction)

>>> recorded_value("CN1CCC(N(Cc2cccs2)c2ccccc2)CC1")
0.00881
